FYI, the data here is from patent US6337397B1.

Target: serotonin 5-HT1A receptor (Rattus norvegicus, UniProt P19327)
Construct: the hippocampuses extracted from male Wistar rats were homogenized; from tissue; host or cells: rat hippocampus membrane homogenate
Sequence (P19327 1-422): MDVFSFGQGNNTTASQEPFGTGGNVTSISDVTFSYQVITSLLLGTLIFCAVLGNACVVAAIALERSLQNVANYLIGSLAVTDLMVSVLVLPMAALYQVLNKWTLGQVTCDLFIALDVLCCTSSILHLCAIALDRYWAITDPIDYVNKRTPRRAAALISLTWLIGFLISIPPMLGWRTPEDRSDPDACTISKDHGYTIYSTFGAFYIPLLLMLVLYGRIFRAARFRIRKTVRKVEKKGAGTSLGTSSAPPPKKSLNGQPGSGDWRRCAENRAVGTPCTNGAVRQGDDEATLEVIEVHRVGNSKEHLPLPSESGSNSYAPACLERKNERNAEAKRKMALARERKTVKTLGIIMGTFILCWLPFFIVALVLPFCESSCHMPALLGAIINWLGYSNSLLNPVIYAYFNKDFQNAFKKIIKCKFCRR
Assay: Affinity with serotonin receptor, [3H]8-OH-DPAT binding
Design: species or system male Wistar rats
Conditions: 0.4 nM [3H]8-OH-DPAT, rat hippocampus preparation, 25° C., 30 minutes; read-out: IC50 (5-HT1A)
pIC50: −log10 of the molar value.
Parameter Measured: pIC50

Reported pIC50 for `O=C1c2ccc(Cl)cc2OC=C(Cl)N1CCCCN1CCC(c2ncccn2)CC1` was 8.95

Input `O=C1c2ccccc2OC=C(Cl)N1CCCCN1CCN(c2ncnc3ccccc23)CC1` . Output pIC50: 8.42

pIC50 in this record for `O=C1c2ccccc2OC=C(Cl)N1CCCCN1CCC(c2ncccn2)CC1` : 8.24

Measured pIC50, `O=C1c2ccc(Cl)cc2OC=C(Cl)N1CCCCN1CCN(c2ccccn2)CC1` : 8.92

Record `O=C1c2ccccc2OC=C(Cl)N1CCCCN1CC=C(c2ccccn2)CC1` . Reported pIC50: 9.33

1: O=C1c2ccc(Cl)cc2OC=C(Cl)N1CCCCN1CCC(c2ccccn2)CC1
2: CC1=COc2ccccc2C(=O)N1CCCCN1CCN(c2cccc(Cl)n2)CC1
IN: Of the two listed items, 1 and 2 , which carries the larger pIC50 figure? Please respond with the label that marks your chosen entry.
OUT: 1
